- System: Candida albicans
- Test: Synergistic antifungal activity against Candida albicans ATCC 64124 assessed as compound MIC measured after 48 hrs in presence of itraconazole by checkboard based microplate reader analysis
- Assay type: functional
Endpoint name: MIC

Reference set (4 entries):
Compound: O=C(CCCN1CCC(O)(c2ccc(Br)cc2)CC1)c1ccc(F)cc1 [BROMPERIDOL]
Test value: 64 µg/mL
--
Compound: O=C(CCCN1CCC(O)(c2ccc(Br)cc2)CC1)c1ccccc1
Test value: > 64 µg/mL
--
Compound: COc1ccc(C(=O)CCCN2CCC(O)(c3ccc(Br)cc3)CC2)cc1
Test value: > 128 µg/mL
--
Compound: O=C(CCCN1CCC(O)(c2ccc(Br)cc2)CC1)c1ccc(Cl)cc1
Test value: > 32 µg/mL

Attention now shifts to the item below.
## Input Look up MIC for this compound: O=C(CCCN1CCC(O)(c2ccc(Br)cc2)CC1)c1ccc(Br)cc1
## Output > 64 µg/mL

====

- Test: Cytotoxicity against mouse J774.A1 cells assessed as cell survival at 32 microg/ml by XTT assay
- Format: toxicity, cell-based
- Test conditions: at 32 µg/mL, read-out: Activity
Endpoint name: viability at 32 microg/ml (%)
Provide only the numeric value, understood in %.

## Input // returns reported viability at 32 microg/ml for input O=C(CCCN1CCC(O)(c2ccc(Br)cc2)CC1)c1ccc(F)cc1 [BROMPERIDOL]
## Output 50

====

- Test system: Candida albicans
- Test: Antifungal activity against Candida albicans ATCC MYA-2876 measured after 48 hrs by broth microdilution analysis
- Type: functional
Endpoint name: MIC

Below are worked cases with known answers.
Smiles repr: C[C@@H](c1ncncc1F)[C@](O)(Cn1cncn1)c1ccc(F)cc1F
Tested system: Candida albicans
MIC: > 32 µg/mL
//
Smiles repr: O=C(CCCN1CCC(O)(c2ccc(Br)cc2)CC1)c1ccc(F)cc1
Tested system: Candida albicans
MIC: > 128 µg/mL

## Input # input compound: COc1ccc(C(=O)CCCN2CCC(O)(c3ccc(Br)cc3)CC2)cc1 ; wanted: its MIC
## Output > 128 µg/mL

Cited source: ChEMBL document CHEMBL5252541
